Tested on: HCT116 (colon)
assay-remarks: In vitro cytotoxic activity (MTT) assay, HCT116
Format: cell-based
particulars: Homo sapiens, HCT-116; HCT116 (colon) cells, exposed for 96 hours; read-out: IC50, 50% inhibition of cell proliferation
result-type: IC50 (nM)
State just the number; it will be interpreted in nM.

The following compounds have reported results that may help.
1) FC(F)(F)c1cccc(Nc2c(-c3ccncc3)nc3cnccn23)c1 [Compound 3a] | 1700
2) O=C(O)c1ccc2c(c1)nc(Nc1cccc(Cl)c1)c1ccncc12 [CX-4945, Silmitasertib, reference compound] | 2300

Consider the additional compound presented here.
Entry FC(F)(F)c1cccc(Nc2c(-c3ccncn3)nc3cnccn23)c1 [Compound 2b] has what IC50?
1500

Reference source: patent US12129257B1
